# system name: Amine oxidase [flavin-containing] B (Mus musculus, UniProt Q8BW75)
# Sequence (Q8BW75 whole entry): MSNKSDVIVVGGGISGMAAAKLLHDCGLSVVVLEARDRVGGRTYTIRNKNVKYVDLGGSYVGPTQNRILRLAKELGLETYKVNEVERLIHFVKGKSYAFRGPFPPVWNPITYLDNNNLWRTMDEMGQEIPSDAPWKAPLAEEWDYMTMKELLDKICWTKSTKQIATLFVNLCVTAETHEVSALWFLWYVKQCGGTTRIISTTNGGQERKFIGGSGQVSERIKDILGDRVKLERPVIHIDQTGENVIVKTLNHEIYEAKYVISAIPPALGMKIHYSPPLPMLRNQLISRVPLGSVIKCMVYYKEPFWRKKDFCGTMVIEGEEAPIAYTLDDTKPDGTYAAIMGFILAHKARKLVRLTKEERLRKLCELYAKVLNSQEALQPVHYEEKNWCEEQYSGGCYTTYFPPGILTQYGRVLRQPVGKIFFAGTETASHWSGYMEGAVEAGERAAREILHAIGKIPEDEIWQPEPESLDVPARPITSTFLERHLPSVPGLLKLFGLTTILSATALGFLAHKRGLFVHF
# test: Inhibition of MAO-B in mouse cerebral homogenate using kynuramine as substrate after 30 mins by fluorimetry in the presence of MOA-A inhibitor clorgyline
recorded endpoint: Ki (µM)
# value in µM; strip the unit string

q: Would you mind telling me what Ki value was observed for COc1ccc(C(=O)Nc2ccc(-c3nc4c(c(=O)n(C)c(=O)n4C)n3C)cc2)cc1 ?
a: 1.18

q: Would you mind telling me what Ki value was observed for COc1ccc(C(=O)Nc2cccc(-c3nc4c([nH]3)c(=O)n(C)c(=O)n4C)c2)cc1 ?
a: 3.49

q: Would you mind telling me what Ki value was observed for Cn1c(=O)c2c(nc(-c3ccc(NC(=O)c4ccccc4)cc3)n2C)n(C)c1=O ?
a: 0.26

q: Would you mind telling me what Ki value was observed for Cc1ccc(C(=O)Nc2ccc(-c3nc4c(c(=O)n(C)c(=O)n4C)n3C)cc2)cc1 ?
a: 1.63

q: Would you mind telling me what Ki value was observed for COc1ccc(C(=O)Nc2ccc(-c3nc4c([nH]3)c(=O)n(C)c(=O)n4C)cc2)cc1 ?
a: 3.97

q: Would you mind telling me what Ki value was observed for Cn1c(=O)c2[nH]c(-c3cccc(NC(=O)c4ccccc4)c3)nc2n(C)c1=O ?
a: 4.21

q: Would you mind telling me what Ki value was observed for Cn1c(=O)c2c(nc(-c3cccc(NC(=O)c4ccccc4)c3)n2C)n(C)c1=O ?
a: 2.95

q: Would you mind telling me what Ki value was observed for COc1ccc(C(=O)Nc2cccc(-c3nc4c(c(=O)n(C)c(=O)n4C)n3C)c2)cc1 ?
a: 3.92

q: Would you mind telling me what Ki value was observed for Cc1ccc(C(=O)Nc2ccc(-c3nc4c([nH]3)c(=O)n(C)c(=O)n4C)cc2)cc1 ?
a: 2.77

q: Would you mind telling me what Ki value was observed for Cc1ccc(C(=O)Nc2cccc(-c3nc4c(c(=O)n(C)c(=O)n4C)n3C)c2)cc1 ?
a: 3.56

q: Would you mind telling me what Ki value was observed for Cc1ccc(C(=O)Nc2cccc(-c3nc4c([nH]3)c(=O)n(C)c(=O)n4C)c2)cc1 ?
a: 2.87

---

Attribute: pIC50
# system name: Amine oxidase [flavin-containing] B (Mus musculus, UniProt Q8BW75)
# test: Inhibition of MAO-B in mouse cerebral homogenate using kynuramine as substrate after 30 mins by fluorimetry in the presence of MOA-A inhibitor clorgyline
The scale used: pIC50 is minus the common logarithm of the concentration in molar units.

The following compounds have reported results that may help.
In [3]: df
Out[3]:
                           structure_string  recorded_endpoint  test_value
0  Cn1c(=O)c2c(nc(-c3cccc(NC(=O)c4ccccc4)c3)n2C)n(C)c1=O              pIC50        4.84
1  Cc1ccc(C(=O)Nc2cccc(-c3nc4c([nH]3)c(=O)n(C)c(=O)n4C)c2)cc1              pIC50        4.85
2  COc1ccc(C(=O)Nc2cccc(-c3nc4c(c(=O)n(C)c(=O)n4C)n3C)c2)cc1              pIC50        4.75
3  Cc1ccc(C(=O)Nc2cccc(-c3nc4c(c(=O)n(C)c(=O)n4C)n3C)c2)cc1              pIC50        4.78
4  Cn1c(=O)c2c(nc(-c3ccc(NC(=O)c4ccccc4)cc3)n2C)n(C)c1=O              pIC50        5.05
5  COc1ccc(C(=O)Nc2ccc(-c3nc4c([nH]3)c(=O)n(C)c(=O)n4C)cc2)cc1              pIC50        4.76
6  Cc1ccc(C(=O)Nc2ccc(-c3nc4c(c(=O)n(C)c(=O)n4C)n3C)cc2)cc1              pIC50        4.95
7  COc1ccc(C(=O)Nc2ccc(-c3nc4c(c(=O)n(C)c(=O)n4C)n3C)cc2)cc1              pIC50        4.97
8  Cn1c(=O)c2[nH]c(-c3cccc(NC(=O)c4ccccc4)c3)nc2n(C)c1=O              pIC50        4.72
9  Cc1ccc(C(=O)Nc2ccc(-c3nc4c([nH]3)c(=O)n(C)c(=O)n4C)cc2)cc1              pIC50        4.86

--- query ---
q: Missing value: pIC50, Amine oxidase [flavin-containing] B (Mus musculus, UniProt Q8BW75), entry COc1ccc(C(=O)Nc2cccc(-c3nc4c([nH]3)c(=O)n(C)c(=O)n4C)c2)cc1 . Fill in?
a: 4.80

---

# system name: Amine oxidase [flavin-containing] B (Mus musculus)
# test: Inhibition of MAO-B in mouse cerebral homogenate using kynuramine as substrate after 30 mins by fluorimetry in the presence of MOA-A inhibitor clorgyline relative to control
# recorded conditions: 0.5 h
recorded endpoint: inhibition (INH) (%)
# value in %; strip the unit string

q: Would you mind telling me what inhibition (INH) value was observed for Cc1ccc(C(=O)Nc2ccc(-c3nc4c([nH]3)c(=O)n(C)c(=O)n4C)cc2)cc1 ?
a: 42.3

q: Would you mind telling me what inhibition (INH) value was observed for COc1ccc(C(=O)Nc2ccc(-c3nc4c(c(=O)n(C)c(=O)n4C)n3C)cc2)cc1 ?
a: 58.2

q: Would you mind telling me what inhibition (INH) value was observed for COc1ccc(C(=O)Nc2ccc(-c3nc4c([nH]3)c(=O)n(C)c(=O)n4C)cc2)cc1 ?
a: 32.1

q: Would you mind telling me what inhibition (INH) value was observed for COc1ccc(C(=O)Nc2cccc(-c3nc4c(c(=O)n(C)c(=O)n4C)n3C)c2)cc1 ?
a: 30.8

q: Would you mind telling me what inhibition (INH) value was observed for Cc1ccc(C(=O)Nc2cccc(-c3nc4c([nH]3)c(=O)n(C)c(=O)n4C)c2)cc1 ?
a: 41.6

q: Would you mind telling me what inhibition (INH) value was observed for Cn1c(=O)c2[nH]c(-c3cccc(NC(=O)c4ccccc4)c3)nc2n(C)c1=O ?
a: 27.9

q: Would you mind telling me what inhibition (INH) value was observed for Cn1c(=O)c2c(nc(-c3cccc(NC(=O)c4ccccc4)c3)n2C)n(C)c1=O ?
a: 40.5

q: Would you mind telling me what inhibition (INH) value was observed for COc1ccc(C(=O)Nc2cccc(-c3nc4c([nH]3)c(=O)n(C)c(=O)n4C)c2)cc1 ?
a: 35.1

q: Would you mind telling me what inhibition (INH) value was observed for Cc1ccc(C(=O)Nc2ccc(-c3nc4c(c(=O)n(C)c(=O)n4C)n3C)cc2)cc1 ?
a: 53.7

q: Would you mind telling me what inhibition (INH) value was observed for Cc1ccc(C(=O)Nc2cccc(-c3nc4c(c(=O)n(C)c(=O)n4C)n3C)c2)cc1 ?
a: 34.4

q: Would you mind telling me what inhibition (INH) value was observed for Cn1c(=O)c2c(nc(-c3ccc(NC(=O)c4ccccc4)cc3)n2C)n(C)c1=O ?
a: 67.4
